Give measured pIC50 for each item. Keep answers brief.
- STUDY TARGET: pERK1/2 (Thr202/Tyr204), PANC-1 (KRAS G121D) (Homo sapiens, UniProt P01116, G12D)
- Construct: pERK1/2 HTRF read-out
- Sequence (P01116 1-188 isoform P01116-2 G12D): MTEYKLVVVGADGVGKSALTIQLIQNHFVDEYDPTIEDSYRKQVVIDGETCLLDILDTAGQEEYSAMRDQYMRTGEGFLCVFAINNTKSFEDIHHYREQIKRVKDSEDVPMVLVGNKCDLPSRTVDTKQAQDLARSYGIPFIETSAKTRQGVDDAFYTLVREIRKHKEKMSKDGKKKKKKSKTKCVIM
- EXPERIMENTAL PROTOCOL: Assay of intracellular pERK1/2 (Thr202/Tyr204) phosphorylation in PANC-1 cells (KRAS G12D)
- Format: cell-based
- CONDITION NOTES: pERK1/2, 2 days, read-out: PANC-1 (KRAS G12D) IC50
Give bare numbers, as −log10 of the molar value.

COMPOUND	MEASURED NUMBER
CC(c1cccnc1N)N1c2nc(OC[C@@H]3C[C@@H](F)CN3C)nc3c(F)c(-c4cc(O)cc(Cl)c4C4CC4)nc(c23)OC[C@@H]1C (stereo partly shown)	9.00
CC(c1cccnc1N)N1CCOc2nc(-c3cc(N)cc(Cl)c3C(F)(F)F)c(F)c3nc(OC[C@@H]4CCCN4C)nc1c23 (single isomer, unassigned) [Compound 98]	8.00
CC(c1cccnc1N)N1c2nc(OC[C@@]34CCCN3C[C@H](F)C4)nc3c(F)c(-c4c(Cl)c(C(F)(F)F)cc5[nH]ncc45)nc(c23)OC[C@@H]1C (single isomer, unassigned)	7.47

Please find the next compound below.
[ask] Query: pIC50; subject: CC(c1cccnc1N)N1CCOc2nc(-c3cc(N)c(F)c(Cl)c3C(F)(F)F)c(F)c3nc(OCC45CC(F)CN4CC(F)C5)nc1c23 (single isomer, unassigned; diastereomer 2) [Compound 246]
[reply] 7.20

====

- STUDY TARGET: pERK1/2 (Thr202/Tyr204), NCI-1H441 (KRAS G12V) (Homo sapiens, UniProt P01116, G12V)
- Construct: pERK1/2 HTRF read-out
- Sequence (P01116 1-188 isoform P01116-2 G12V): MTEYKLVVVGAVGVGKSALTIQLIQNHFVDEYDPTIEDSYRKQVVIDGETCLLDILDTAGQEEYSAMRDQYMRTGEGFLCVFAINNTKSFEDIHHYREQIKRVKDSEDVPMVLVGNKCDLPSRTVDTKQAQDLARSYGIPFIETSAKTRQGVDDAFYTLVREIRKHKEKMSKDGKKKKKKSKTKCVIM
- EXPERIMENTAL PROTOCOL: Assay of intracellular pERK1/2 (Thr202/Tyr204) phosphorylation in NCI-H441 cells (KRAS G12V)
- Assay type: cell-based
- CONDITION NOTES: pERK1/2, 2 days, read-out: NCI-H441 (KRAS G12V) IC50
Give measured IC50 for each item. Keep answers brief.
Answers are plain numbers, in nM.

Sample records with IC50:
COMPOUND	IC50, nM
Cc1cc2[nH]ncc2c(-c2nc3c4c(nc(OC[C@@]56CCCN5C[C@H](F)C6)nc4c2F)N([C@H](C)c2cc(F)cnc2N)[C@@H](C)CO3)c1C(F)(F)F	0.4
CC[C@@H](c1cccnc1N)N1CCOc2nc(-c3cc(N)c(F)c(C)c3C(F)(F)F)c(F)c3nc(OC[C@@]45CCCN4C[C@H](F)C5)nc1c23 (single isomer, unassigned)	18
CC(c1cccnc1N)N1CCOc2nc(-c3cc(O)cc4ccc(F)c(F)c34)c(F)c3ncnc1c23 (single isomer, unassigned) [Compound 30]	64

Please find the next compound below.
[ask] Query: IC50; subject: Cc1c(F)c(N)cc(-c2nc3c4c(nc(OC[C@@]56CCCN5C[C@H](F)C6)nc4c2F)N([C@H](C)c2cc(F)cnc2N)[C@@H](C)CO3)c1C(F)(F)F
[reply] 1

====

Give measured pIC50 for each item. Keep answers brief.
- STUDY TARGET: pERK1/2 (Thr202/Tyr204), NCI-1H358 (KRAS G12C) (Homo sapiens, UniProt P01116, G12C)
- Construct: pERK1/2 HTRF read-out
- Sequence (P01116 1-188 isoform P01116-2 G12C): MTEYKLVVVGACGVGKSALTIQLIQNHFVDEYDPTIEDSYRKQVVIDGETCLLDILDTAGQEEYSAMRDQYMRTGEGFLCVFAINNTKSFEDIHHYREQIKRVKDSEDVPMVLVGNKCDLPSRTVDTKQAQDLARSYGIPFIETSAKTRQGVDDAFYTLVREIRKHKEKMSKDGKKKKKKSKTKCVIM
- EXPERIMENTAL PROTOCOL: Assay of intracellular pERK1/2 (Thr202/Tyr204) phosphorylation in NCI-H358 cells (KRAS G12C)
- Format: cell-based
- CONDITION NOTES: pERK1/2, 2 days, read-out: NCI-H358 (KRAS G12C) IC50
Numbers only, as −log10 of the molar value.

Sample records with pIC50:
COMPOUND	pIC50
CC(c1cccnc1N)N1CCOc2nc(-c3cc(O)cc(Cl)c3C3CC3)c(F)c3nc(OC[C@@H]4CCCN4C)nc1c23 (single isomer, unassigned) [Compound 31]	6.39
Cc1c(F)c(N)cc(-c2nc3c4c(nc(OC[C@@H]5C[C@@H](F)CN5C)nc4c2F)N(C(C)c2cccnc2N)CCO3)c1C(F)(F)F (stereo partly drawn)	9.52
Cc1cc(N)cc(-c2nc3c4c(nc(OC[C@@H]5CCCN5C5COC5)nc4c2F)N(C(C)c2cccnc2N)CCO3)c1C(F)(F)F (single isomer, unassigned) [Compound 160]	9.30
CC(c1cccnc1N)N1CCOc2nc(-c3cc(N)c(F)cc3C(F)(F)F)c(F)c3nc(OC[C@@]45CCCN4C[C@H](F)C5)nc1c23 (stereo partly drawn) [Compound 135]	8.70

The following compounds each have a reported value; give each one's pIC50.
1. CC(c1cccnc1N)N1c2nc(OC[C@@]34CCCN3C[C@H](F)C4)nc3c(F)c(-c4c(C(F)(F)F)ccc5[nH]ncc45)nc(c23)OC[C@@H]1C (stereo partly drawn)
2. CC(c1cccnc1N)N1CCOc2nc(-c3cc(N)c(F)c(Cl)c3Cl)c(F)c3nc(OC[C@@]45CCCN4C[C@H](F)C5)nc1c23 (stereo partly drawn)
3. [2H]C([2H])(Oc1nc2c3c(nc(-c4cc(N)cc(C)c4C(F)(F)F)c(F)c3n1)OCCN2C(C)c1cccnc1N)[C@@H]1C[C@@H](F)CN1C([2H])([2H])[2H] (single isomer, unassigned) [Compound 133]
4. CC(c1cccnc1N)N1c2nc(OC[C@@]34CCCN3C[C@H](F)C4)nc3c(F)c(-c4cc(N)c(F)c(Cl)c4C(F)(F)F)nc(c23)OC[C@@H]1C (single isomer, unassigned) [Compound 269]
5. Cc1c(F)c(N)cc(-c2nc3c4c(nc(OC[C@@]56CCCN5C[C@@H](F)C6)nc4c2F)N(C(C)c2cccnc2N)CCO3)c1C(F)(F)F (stereo partly drawn)
6. CC(c1cccnc1N)N1CCOc2nc(-c3cc(O)cc(Cl)c3C3CC3)c(F)c3nc(OC[C@@H]4CC(F)(F)CN4C)nc1c23 (single isomer, unassigned) [Compound 56]
7. [2H]C1([2H])CN(C(C)c2cccnc2N)c2nc(OC[C@@]34CCCN3C[C@H](F)C4)nc3c(F)c(-c4cc(N)cc(C)c4C(F)(F)F)nc(c23)O1 (single isomer, unassigned) [Compound 153]

[reply]
1. 9.30
2. 9.00
3. 8.52
4. 9.70
5. 9.00
6. 8.52
7. 9.70
